Test system: Escherichia coli TOP10;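 note: peptides expressed intracellularly from a pBAD plasmid library in pooled LB shake-flask culture, induced with 0.3% L-arabinose, DNA abundance read by NGS, three biological replicates, DESeq2 with apeglm shrinkage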
Assay: shrunken log2 fold change of peptide-encoding DNA abundance (4.5 h post-induction vs induction); higher = less antimicrobial activity (less host growth inhibition)
Conditions: time post-induction: 4.5 h; library: site-saturation at positions 5, 18, 19, 20
# binarize shrunken log2 fold change: threshold -0.04 inclusive, high side rule met, low side rule not met

In [3]: df
Out[3]:
                      chain      category
 0  RRIRWRPPRLPRPRPRPFIWPRP      rule met
 1  RRIRRRPPRLPRPRPRPVRWPRP      rule met
 2  RRIRQRPPRLPRPRPRPLPYPRP  rule not met
 3  RRIRHRPPRLPRPRPRPFWPPRP      rule met
 4  RRIRYRPPRLPRPRPRPSLHPRP  rule not met
 5  RRIRMRPPRLPRPRPRPNSCPRP      rule met
 6  RRIRARPPRLPRPRPRPRKMPRP      rule met
 7  RRIRVRPPRLPRPRPRPRDNPRP  rule not met
 8  RRIRERPPRLPRPRPRPRAHPRP      rule met
 9  RRIRNRPPRLPRPRPRPCVWPRP      rule met
10  RRIRKRPPRLPRPRPRPFVKPRP      rule met
11  RRIRCRPPRLPRPRPRPSLQPRP  rule not met
12  RRIRKRPPRLPRPRPRPKNTPRP      rule met
13  RRIRGRPPRLPRPRPRPSACPRP      rule met
14  RRIRRRPPRLPRPRPRPYEQPRP  rule not met
